# assay_system: T1, recombinant human PAD4 (human, UniProt Q9UM07 1-663)
# T1 construct: also called rhPAD4; hPAD4
# T1 sequence (Q9UM07 whole entry): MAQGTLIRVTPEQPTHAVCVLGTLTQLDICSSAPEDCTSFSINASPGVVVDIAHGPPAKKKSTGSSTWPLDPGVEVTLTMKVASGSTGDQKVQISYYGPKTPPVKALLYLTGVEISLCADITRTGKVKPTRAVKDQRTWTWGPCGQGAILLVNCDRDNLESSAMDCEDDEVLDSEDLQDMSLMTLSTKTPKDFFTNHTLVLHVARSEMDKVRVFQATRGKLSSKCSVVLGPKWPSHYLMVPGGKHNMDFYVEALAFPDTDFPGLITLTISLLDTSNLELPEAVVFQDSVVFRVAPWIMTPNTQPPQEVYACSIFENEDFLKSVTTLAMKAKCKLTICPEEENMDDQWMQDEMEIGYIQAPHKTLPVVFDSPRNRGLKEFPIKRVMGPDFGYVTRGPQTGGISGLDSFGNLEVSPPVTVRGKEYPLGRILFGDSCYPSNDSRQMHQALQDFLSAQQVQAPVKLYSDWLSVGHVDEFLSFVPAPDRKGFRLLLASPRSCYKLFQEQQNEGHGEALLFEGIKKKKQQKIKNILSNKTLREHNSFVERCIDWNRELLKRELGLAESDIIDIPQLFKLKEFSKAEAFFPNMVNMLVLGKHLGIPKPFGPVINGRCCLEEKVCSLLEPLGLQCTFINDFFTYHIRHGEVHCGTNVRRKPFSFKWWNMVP
# protocol: SPR 37 C, captured antibody, PAD4 analyte, 1 mM CaCl2
test_readout: kon
Respond with the figure and its unit, in that order.

Asked: Read off the recorded kon for hz20-12 (antibody, V domains shown, light constant region not tied to this antibody) VH: QVQLVQSGAEVAKPGASVKVSCKASGYTFTNYGISWVRQRPGQGLEWMGEIYPRSGNTYHNEKFKDRVTMTTDTSTSTAYMELRSLRSEDTAVYYCARSMITTRYWYFDVWGKGTTVTVSS VL: DIVMTQSPDSLAVSLGERATINCRASESVDTYGNSFMHWYQQKPGQPPKLLIYLASNLESGVPDRFSGSGSGTDFTLTIDSLQAEDVAVYYCQQNNEDPLTFGQGTKLEIK
Given back: 320000 M⁻¹ s⁻¹

Asked: Read off the recorded kon for hz13-5 (antibody, IgG1, V domains shown, also called clone 13-based hz13-5 antibody; parent hz13-5) VH: EVLLVQSGAEVKKPGASVKLSCTSSDFNIKDHFIHWVRQAPGKGLEWMGRIDPEDDETKYAPKFQDRVTMTADTSTDTAYMELSSLRSEDTAVFYCAGYGNYEGAMDYWGQGTLVTVSS VL: DIQMTQSPSSLSASVGDRVTITCRASENVNNYGIGFMNWFQQKPGKAPKLLIYAASRRGSGVPSRFSGSGSGTDFTLTISSLQPEDFATYFCQQSKEVPYTFGQGTKVEIK
Given back: 1.6e+06 M⁻¹ s⁻¹

Asked: Read off the recorded kon for hz13-9 (antibody, V domains shown, light constant region not tied to this antibody) VH: EVLLVQSGAEVKKPGASVKLSCTSSDFNIKDHFIHWVRQAPGKGLEWIGRIDPEDDETKYAPKFQDRVTITADTSTDTAYLELSSLRSEDTAVFYCAGYGNYEGAMDYWGQGTLVTVSS VL: DIVMTQSPSSLSASVGDRVTLTCRASENVNNYGIGFMNWFQQKPGKAPKLLIYAASRRGSGVPSRFSGSGSGTDFTLTISSMQPEDFATYFCQQSKEVPYTFGQGTKLEIK
Given back: 2e+06 M⁻¹ s⁻¹

Asked: Read off the recorded kon for hz20-7 (antibody, IgG1, V domains shown, also called clone 20-based hz20-7 antibody) VH: QVQLVQSGAEVKKPGASVKVSCKASGYTFTNYGISWVRQAPGQGLEWMGEIYPRSGNTYHNEKFKDRVTMTTDTSTSTAYMELRSLRSDDTAVYYCARSMITTRYWYFDVWGKGTTVTVSS VL: DIVMTQSPDSLAVSLGERATINCRASESVDTYGNSFMHWYQQKPGQPPKLLIYLASNLESGVPDRFSGSGSGTDFTLTISSLQAEDVAVYYCQQNNEDPLTFGQGTKLEIK
Given back: 350000 M⁻¹ s⁻¹

Asked: Read off the recorded kon for hz13-12 D31E (antibody, human IgG1, kappa, V domains shown, IgG1.3f; also called hz3-12 D31E) VH: EVQLVQSGAEVKKPGATVKISCTSSDFNIKEHFIHWVQQAPGKGLEWMGRIDPEDDETKYAPKFQDRVTITADTSTDTAYMELSSLRSEDTAVYYCAGYGNYEGAMDYWGQGTTVTVSS VL: DVVMTQSPLSLPVTLGQPASISCRASENVNNYGIGFMNWFQQRPGQSPRLLIYAASRRGSGVPDRFSGSGSGTDFTLKISRVEEEDVGVYYCQQSKEVPYTFGGGTKVEIKR
Given back: 2.7e+06 M⁻¹ s⁻¹
